- Experiment Description: in vitro
- Condition Set: human, hela cells, % viability
Measurement Type: viability at 28.5 h, 10 µM

INSERT INTO assay_data (compound, result) VALUES
  ('Cc1cccc(C2(CNC(=O)C3COCCO3)CCCCC2)c1 (centres unmarked)', '109%'),
  ('Cc1ccc(C2c3c(O)n[nH]c3CC(C)(O)C2C(=O)OCc2ccccc2)cc1 (centres unmarked)', '92.8%'),
  ('OCCN1CC2(CCN(Cc3cccc(Oc4ccccc4)c3)CC2)c2ccccc21', '88.7%'),
  ('CCOc1cc(OCC)nc(Oc2ccc(C(=O)OC)cc2)n1', '87.2%'),
  ('CC1(C)OC2C(C(=O)O)OC(n3cnc4c(N)ncnc43)C2O1 (centres unmarked)', '96.2%'),
  ('O=S(=O)(Nc1cc(F)cc(C(F)(F)F)c1)c1cc2c(N3CCNCC3)nccc2s1 [CBK038102C]', '95.5%'),
  ('CC(C)C(CNCc1ccn(C)c1)c1ccnn1C (centres unmarked)', '91%'),
  ('O=P(O)(CN1CCCCC1)C1CCCCC1O (centres unmarked)', '87.1%'),
  ('O=C(O)c1ccccc1CSc1ccccn1', '98%'),
  ('COCCN1CC(CNC(=O)Nc2cc(NC(C)=O)ccc2F)CC1=O (centres unmarked)', '82.4%'),
  ('Cc1ccc(S(=O)(=O)NC2c3cccc4cccc(c34)C2Sc2n[nH]c(N)n2)cc1 (centres unmarked)', '77.6%'),
  ('COc1ccc(C(=O)Nc2ccccc2N2CCN(C)CC2)cc1Cl', '90.5%'),
  ('CCN1CCN(c2cc3c(cc2F)c(=O)c(C(=O)NCCOC)cn3C2CC2)CC1', '94.2%'),
  ('CCn1ncc(CN2C[C@@H]3CCCN3C[C@@H]2CCSC)c1C', '109%'),
  ('CSc1nc(C)c(CCC(=O)Nc2ccc(N3CC(C)OC(C)C3)nc2)c(C)n1 (centres unmarked)', '87.4%'),
  ('COCCCOc1cncc(N2CCCC2)n1', '92.4%'),
  ('N#C/C(=N/Nc1ccc(Br)cc1)C1=NC(=O)CS1', '96%'),
  ('COc1cc(CC(=O)Nc2cccc(-c3ccc(SC(F)(F)F)cc3)c2)cc(OC)c1OC', '100%'),
  ('CCOC(=O)c1[nH]c2ccccc2c1NC(=O)c1ccoc1', '107%'),
  ('CCOc1ccccc1N1C(=O)CC(Sc2nc(-c3ccccc3)c3cc(Cl)ccc3n2)C1=O (centres unmarked)', '116%');
